# class 1 = logP below 1 (exclusive); class 0 = logP at/above 1

Illustrative cases are given below, each with its answer.
substance_smiles: Cc1nc2ccccc2c(=O)n1CC(=O)Nc1c(C)n(C)n(-c2ccccc2)c1=O
class: class 0

substance_smiles: Cc1nc2ccccc2c(=O)n1CC(=O)NCc1ccco1
class: class 0

substance_smiles: Cc1nc2ccccc2c(=O)n1CC(=O)NCc1ccccc1
class: class 0

Qu. A record lists CCOC(=O)c1nc2ccccc2c(=O)[nH]1 . Is its logP below 1?
Ans. class 1

Qu. A record lists CCOc1ccc(NC(=O)Cn2c(C)nc3ccccc3c2=O)cc1 . Is its logP below 1?
Ans. class 0

Qu. A record lists Cc1cc(C)nc(NS(=O)(=O)c2ccc(NC(=O)Cn3c(C)nc4ccccc4c3=O)cc2)n1 . Is its logP below 1?
Ans. class 1

Qu. A record lists CCN(CC)C(=O)Cn1c(C)nc2ccccc2c1=O . Is its logP below 1?
Ans. class 0

Qu. A record lists Cc1nc2ccccc2c(=O)n1CC(=O)N1CCOCC1 . Is its logP below 1?
Ans. class 1

Qu. A record lists COC(=O)c1cc(NC(=O)Cn2c(C)nc3ccccc3c2=O)cc(C(=O)OC)c1 . Is its logP below 1?
Ans. class 0

Qu. A record lists Cc1nc2ccccc2c(=O)n1CC(=O)N1CCCCC1 . Is its logP below 1?
Ans. class 0

Qu. A record lists Cc1nc2ccccc2c(=O)n1CC(=O)NNc1ccccc1 . Is its logP below 1?
Ans. class 0

* * *

Let's look at some compounds and their measured logP.
Answer as a number with no unit attached.

substance_smiles: COC(=O)CNC(=O)Cn1c(C)nc2ccccc2c1=O
meas_value: 0.44
--
substance_smiles: Cc1nc2ccccc2c(=O)n1CC(=O)Nc1ccc(S(=O)(=O)NC(=N)N)cc1
meas_value: 0.09

As a next step, examine the compound that follows.
Qu. Which logP is reported for this compound? COC(=O)c1ccc(C(=O)OC)c(NC(=O)Cn2c(C)nc3ccccc3c2=O)c1
Ans. 3.53
